pEC50: −log10 of the molar value.
# pEC50 measurements, system: Peroxisome proliferator-activated receptor gamma (Homo sapiens, UniProt P37231)
# Sequence (P37231 whole entry): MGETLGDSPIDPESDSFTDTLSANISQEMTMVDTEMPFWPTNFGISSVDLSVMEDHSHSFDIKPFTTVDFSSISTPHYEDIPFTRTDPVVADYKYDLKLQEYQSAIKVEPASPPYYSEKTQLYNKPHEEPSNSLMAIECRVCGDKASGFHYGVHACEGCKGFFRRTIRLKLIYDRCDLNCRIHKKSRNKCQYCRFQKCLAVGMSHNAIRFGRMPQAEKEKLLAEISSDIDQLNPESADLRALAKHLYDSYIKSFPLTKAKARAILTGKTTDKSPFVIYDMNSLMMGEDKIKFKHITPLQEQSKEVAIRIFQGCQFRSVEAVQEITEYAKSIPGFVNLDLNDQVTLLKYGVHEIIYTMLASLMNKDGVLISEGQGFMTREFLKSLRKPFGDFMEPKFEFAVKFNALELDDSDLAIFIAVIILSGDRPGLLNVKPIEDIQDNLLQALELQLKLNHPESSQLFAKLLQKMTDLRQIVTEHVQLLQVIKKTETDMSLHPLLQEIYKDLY
MEASURED METRIC: pEC50

- COMPOUND: "CO/N=C(\\C)C(Cc1ccc(OCCc2nc(-c3ccccc3)oc2C)cc1)C(=O)O (centres undefined)"
  REPORTED: 8.68
- COMPOUND: "CCO/N=C(\\C)C(Cc1ccc(OCc2nc(-c3ccccc3)oc2C)cc1)C(=O)O (centres undefined)"
  REPORTED: 8.40
- COMPOUND: "C/C(=N\\OCCF)C(Cc1ccc(OCc2nc(-c3ccc(F)cc3)oc2C)cc1)C(=O)O (centres undefined)"
  REPORTED: 8.11
- COMPOUND: "CCO[C@@H](Cc1ccc(OCCc2ccc(OS(C)(=O)=O)cc2)cc1)C(=O)O"
  REPORTED: 5.45
- COMPOUND: "CCCO/N=C(\\C)C(Cc1ccc(OCCc2nc(-c3ccccc3)oc2C)cc1)C(=O)O (centres undefined)"
  REPORTED: 9.26
- COMPOUND: "C/C(=N\\OCC(C)C)C(Cc1ccc(OCCc2nc(-c3ccccc3)oc2C)cc1)C(=O)O (centres undefined)"
  REPORTED: 9.52
- COMPOUND: "C/C(=N\\OCc1ccc(F)cc1)C(Cc1ccc(OCCc2nc(-c3ccccc3)oc2C)cc1)C(=O)O (centres undefined)"
  REPORTED: 9.27
- COMPOUND: "CCCO/N=C(\\C)C(Cc1ccc(OCCc2nc(C(C)C)oc2C)cc1)C(=O)O (centres undefined)"
  REPORTED: 8.28
- COMPOUND: "CCO/N=C(\\CC)C(Cc1ccc(OCCc2nc(-c3ccccc3)oc2C)cc1)C(=O)O (centres undefined)"
  REPORTED: 10.00

* * *

assay: Clearance in Sprague-Dawley rat at 5 mg/kg, iv; format: ADME, organism-based; parameters: dose 5 mg/kg, route intravenous; conditions: in vivo
MEASURED METRIC: clearance (mL/min/kg)

- MOLECULE: "CCCO/N=C(\\C)C(Cc1ccc(OCc2nc(-c3ccccc3)oc2C)cc1)C(=O)O (stereo unspecified)"
  REPORTED: 0.8

* * *

Dear all, this message contains EC50 results, target or system Peroxisome proliferator-activated receptor gamma (Homo sapiens, UniProt P37231).

- COMPOUND: "CCCO/N=C(\\C)C(Cc1ccc(OCc2nc(C(C)C)oc2C)cc1)C(=O)O (centres undefined)"
  EC50: "5 nM"
- COMPOUND: "CCO/N=C(\\C)C(Cc1ccc(OCCc2nc(-c3ccccc3)oc2C)cc1)C(=O)O (centres undefined)"
  EC50: "1 nM"
- COMPOUND: "CCO/N=C(\\C)C(Cc1ccc(OCCc2nc(C(C)C)oc2C)cc1)C(=O)O (centres undefined)"
  EC50: "20 nM"
- COMPOUND: "CCO/N=C(\\C)C(Cc1ccc(OCCc2nc(-c3ccc(F)cc3)oc2C)cc1)C(=O)O (centres undefined)"
  EC50: "3 nM"
- COMPOUND: "CCCO/N=C(\\C)C(Cc1ccc(OCc2nc(-c3ccc(F)cc3)oc2C)cc1)C(=O)O (centres undefined)"
  EC50: "28 nM"
- COMPOUND: "CCO/N=C(\\C)C(Cc1ccc(OCc2nc(C(C)C)oc2C)cc1)C(=O)O (centres undefined)"
  EC50: "48 nM"
- COMPOUND: "CCCCO/N=C(\\C)C(Cc1ccc(OCCc2nc(-c3ccccc3)oc2C)cc1)C(=O)O (centres undefined)"
  EC50: "0.19 nM"
- COMPOUND: "CCCO/N=C(\\C)C(Cc1ccc(OCc2nc(-c3ccccc3)oc2C)cc1)C(=O)O (centres undefined)"
  EC50: "13 nM"
- COMPOUND: "C/C(=N\\OCCF)C(Cc1ccc(OCCc2nc(-c3ccc(F)cc3)oc2C)cc1)C(=O)O (centres undefined)"
  EC50: "2.9 nM"

Where do these numbers come from? They come from ChEMBL document CHEMBL1143807.
